Ref: paper PMC8189969

Overview of recorded dH for various binders
# experimentalTarget: T1, hen egg white lysozyme (Gallus gallus (hen egg white), UniProt P00698)
# T1 construct: hen egg white lysozyme (HEWL), 14.5 kDa, monomeric; The source is named for ITC (Roche powder); also called HEWL; source: bought: Roche (HEWL lysozyme powder, > 95%)
# T1 sequence (P00698 19-147): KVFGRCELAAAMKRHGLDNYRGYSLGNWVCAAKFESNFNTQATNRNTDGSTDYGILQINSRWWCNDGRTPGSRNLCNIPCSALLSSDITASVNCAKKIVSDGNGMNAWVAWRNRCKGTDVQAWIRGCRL
# experimentalDetails: ITC; Malvern PEAQ-ITC; 20 °C; PBS pH 7.4 with 0.005% tween 20; lysozyme in the cell and nanobody titrated (so in the source); nanobody 20 or 30 µM, lysozyme 200 or 300 µM; single site model
# conditionSet: both partners purified
readoutLabel: dH (kcal/mol)

[
  {
    "binder": "Phage-F07 nanobody (VHH, selected by phage display from the NaLi-H1 synthetic library (Hybrigenics); also called P-F07; source: E. coli T7-Express, purified (IMAC, Superdex-75)) VHH: EVQLQASGGGFVQPGGSLRLSCAASGTSSDLYDMGWFRQAPGKEREFVSAISGDDTQYTYYADSVKGRFTISRDNSKNTVYLQMNSLRAEDTATYYCAPRAHEPHGHWNYYWGQGTQVTVSS",
    "unitLabel": "kcal/mol",
    "endpointResult": -23.5
  },
  {
    "binder": "Cab-Lys3 S105N nanobody (VHH, as the chain of m6 (Cab-Lys3) with S105N in CDR3; source: E. coli T7-Express, purified (IMAC, Superdex-75)) VHH: DVQLQASGGGSVQAGGSLRLSCAASGYTIGPYCMGWFRQAPGKEREGVAAINMGGGITYYADSVKGRFTISQDNAKNTVYLLMNSLEPEDTAIYYCAADSTIYANYYECGHGLSTGGYGYDSWGQGTQVTVSS",
    "unitLabel": "kcal/mol",
    "endpointResult": 2.6
  }
]
